System: SNB-19
Experiment: NCI tumour cell line growth inhibition, 48 h
The source made the active and inactive calls. No stated cut-off is given here; in the data, active = GI50 up to about 1.1 µM and inactive = higher. Starred links: 1 amine or outer side, 2 acyl side, 3 side chain; linkers in the order of their positions; H or OH if unused. Non-standard residues stand in square brackets, D forms with d. Residues, ends and D or L forms follow the SMILES beside them. X41 = CSCCCC(N[*:1])C(=O)[*:2]
Labels: YES (active), NO (inactive)

molecule=COc1cc2cc3c4c(cc(OC)c(OC)c4c2cc1OC)CCN3C(=O)OCCN1CCNCC1 label=NO
molecule="CSCCCC(NC(=O)CNC(=O)C1CCCN1C(=O)C(Cc1ccc(O)cc1)NC(=O)C(Cc1ccccc1)NC(=O)C(CCCNC(=N)N)NC(=O)C(CC(=O)O)NC(=O)C1CCCN1C(=O)C(CC(=O)O)NC(=O)C1CCCN1C(=O)C1CCCN1C(=O)CN)C(N)=O (stereo unspecified) (H-GPPDPDRFYPG[X41]-NH2; configuration not given here)" label=NO
molecule=N/C(=N\c1ccc(Cl)cc1)NS(=O)(=O)c1cccc2nsnc12 label=NO
molecule=Cc1c(C#N)c2ccccc2c2nc3ccccc3n12 label=NO
molecule=c1ccc2c(c1)Nc1ccccc1[P+]21c2ccccc2Nc2ccccc21 label=YES
molecule=C=CN1C(=O)OC[C@@H]1c1ccccc1 label=NO
